study-target: single-chain tethered dimer of HIV protease (Human immunodeficiency virus 1)
experiment-summary: biochemical
Type: biochemical
Parameters: fused on or other part: A second copy of the same protease unit is joined to the first by a short peptide tether, giving one polypeptide
assay-conditions: Table 2i; read-out: HPLC Ki
# Ki per record follows

Q: For the molecule COc1cccc(CC2NC(=O)NC(Cc3cccc(OC)c3)C(O)C2O)c1 (stereo not shown) [20AO] , what Ki is on record?
Ans: 10 to 1000 nM

Q: Let us now turn to NC(=NO)c1cccc(CN2C(=O)N(Cc3cccc(C(N)=NO)c3)C(Cc3ccccc3)C(O)C(O)C2Cc2ccccc2)c1 (stereo not shown) [20V]
Ans: < 10 nM

Q: Field entry: O=C1N(Cc2ccc(CO)cc2)C(Cc2ccc(F)c(F)c2)C(O)C(O)C(Cc2ccc(F)c(F)c2)N1Cc1ccc(CO)cc1 (stereo not shown) [20AB]
Ans: < 10 nM

Q: Same for CCCC(=O)c1cccc(CN2C(=O)N(Cc3cccc(C(=O)CCC)c3)C(Cc3ccc(F)cc3)C(O)C(O)C2Cc2ccc(F)cc2)c1 (stereo not shown) [20P]
Ans: < 10 nM

---

endpoint-name: melting point

# count of solved cases: 5
CCCCN1C(=O)N(Cc2ccccc2)C(Cc2ccccc2)C(O)C(O)C1Cc1ccccc1 (centres unmarked): 89 to 91 °C
CNC(=O)c1cccc(CN2C(=O)N(Cc3cccc(CO)c3)C(Cc3ccccc3)C(O)C(O)C2Cc2ccccc2)c1 (centres unmarked) [11M]: 107 to 109 °C
CC(C)N1C(=O)N(Cc2cccc(O)c2)C(Cc2ccccc2)C(O)C(O)C1Cc1ccccc1 (centres unmarked): 212 to 213 °C
O=C1N(Cc2ccccc2)C(Cc2ccccc2)C(O)C(O)C(Cc2ccccc2)N1Cc1cccc(O)c1 (centres unmarked) [11I]: 189 to 193 °C
CON=Cc1cccc(CN2C(=O)N(Cc3cccc(C=NOC)c3)C(Cc3ccccc3)C(O)C(O)C2Cc2ccccc2)c1 (centres unmarked) [10D]: 183 to 185 °C

Q: Which value of melting point has been reported for O=C1N(Cc2ccc(F)c(C(F)(F)F)c2)C(Cc2ccccc2)C(O)C(O)C(Cc2ccccc2)N1Cc1ccc(F)c(C(F)(F)F)c1 (centres unmarked) in the records?
Ans: 167.2 °C

Q: Try the molecule O=C1N(Cc2cccc(-c3cc[nH]n3)c2)C(Cc2ccccc2)C(O)C(O)C(Cc2ccccc2)N1Cc1ccc(O)c(O)c1 (centres unmarked) [Example 15CC]
Ans: 177 to 180 °C

Q: Check CNC(=O)Oc1cccc(CN2C(=O)N(Cc3cccc(OC(=O)NC)c3)C(Cc3ccccc3)C(O)C(O)C2Cc2ccccc2)c1 (centres unmarked) too.
Ans: 150 °C (dec.)

Q: Same for O=C1N(Cc2cccc(-c3nnn[nH]3)c2)C(Cc2ccccc2)C(O)C(O)C(Cc2ccccc2)N1Cc1cccc(-c2nnn[nH]2)c1 (centres unmarked)
Ans: 159.4 °C

Q: Input O=S1(=O)N(Cc2ccc(CO)cc2)C(Cc2ccccc2)C(O)C(O)C(Cc2ccccc2)N1Cc1ccc(CO)cc1 (centres unmarked) [23B]
Ans: 189 to 190 °C

Q: Next up: CCOC(=O)c1ccc(CN2C(=O)N(Cc3ccc(C(=O)OCC)cc3)C(Cc3ccccc3)C(O)C(O)C2Cc2ccccc2)cc1 (centres unmarked) [Example 11F]
Ans: 174 to 178 °C

Q: What do we get for CCNC(=O)c1cccc(CN2C(=O)N(Cc3cccc(C(=O)NCC)c3)C(Cc3ccccc3)C(O)C(O)C2Cc2ccccc2)c1 (centres unmarked) [11R] ?
Ans: 135 to 138 °C

Q: Another molecule to check: Nc1cccc(CN2C(=O)N(Cc3cccc(-c4cc[nH]n4)c3)C(Cc3ccccc3)C(O)C(O)C2Cc2ccccc2)c1 (centres unmarked) [Example 15CE]
Ans: 136 to 138 °C

Q: Repeat with N#CN=C1N(CC2CC2)[C@H](Cc2ccccc2)[C@H](O)[C@@H](O)[C@@H](Cc2ccccc2)N1CC1CC1
Ans: 211.2 °C
